Ref: patent US20260297129A1

Task for the reader: assign each of the following molecules its reported solubility at 2 h.
assay: Solubility of peptide compounds in buffer formulations (Table 5); type: physicochemical; conditions: aqueous buffer; 50 mM phosphate buffer pH 6.5, 2 h agitation, target 1 mg/ml; read-out: Solubility, Buffer pH 6.5
Numbered stars: 1 amine (or outer) side, 2 acyl side, 3 side chain; on linkers, the order of the positions; unused ones are H or OH. Bridge positions count the residues as written; N and C are the ends. Square brackets hold non-standard residues; d marks the D form. Peptide text beside a SMILES is read from it. * marks the point of attachment. Lys(Me,(CH2)4NMe(CH2)4CO) = CN(CCCCC(=O)[*:3])CCCCN(C)CCCC[C@H](N[*:1])C(=O)[*:2]; X3 = Cc1cccc2c(C[C@H](N[*:1])C(=O)[*:2])cn(C)c12; Trp(7-Me) = Cc1cccc2c(C[C@H](N)C(=O)O)c[nH]c12; NH(2-(3-pyridyl)ethyl) = c1cncc(CCN*)c1; Sebacoyl = O=C(CCCCCCCCC(=O)[*:2])[*:1]; 2Nal = N[C@@H](Cc1ccc2ccccc2c1)C(=O)O; 3Pal = N[C@@H](Cc1cccnc1)C(=O)O; Lys(Me) = CNCCCC[C@H](N)C(=O)O; Thp = NC1(C(=O)O)CCOCC1; Me2NCH2CH2 = CN(C)CC*; Aib = CC(C)(N)C(=O)O; Sar = CNCC(=O)O

Some molecules with known solubility at 2 h results, for comparison:
[
  {
    "molecule": "Cc1cccc2c(C[C@@H]3NC(=O)CCCCN(C)CCCCN(C)CCCC[C@@H](C(=O)NCC(=O)N[C@@H](Cc4cccnc4)C(=O)N(C)CC(N)=O)NC(=O)C(C)(C)NC(=O)[C@H](Cc4ccc5ccccc5c4)NC(=O)[C@H](Cc4ccc(OCCN(C)C)cc4)NC(=O)C4(CCOCC4)NC(=O)[C@H](CCC(N)=O)NC3=O)c[nH]c12 [compound 28] ([Trp(7-Me)]Q[Thp]Y(Me2NCH2CH2)[2Nal][Aib][Lys(Me,(CH2)4NMe(CH2)4CO)]G[3Pal][Sar]-NH2; lactam N-7)",
    "solubility at 2 h": "≥ 1060 µg/mL"
  },
  {
    "molecule": "Cc1cccc2c(C[C@@H]3NC(=O)CCCCN(C)CCCCN(C)CCCC[C@@H](C(=O)NCC(=O)NCCc4cccnc4)NC(=O)C(C)(C)NC(=O)[C@H](Cc4ccc5ccccc5c4)NC(=O)[C@H](Cc4ccc(OCCN(C)C)cc4)NC(=O)C4(CCOCC4)NC(=O)[C@H](CC(C)C)NC3=O)cn(C)c12 [compound 49] ([X3]L[Thp]Y(Me2NCH2CH2)[2Nal][Aib][Lys(Me,(CH2)4NMe(CH2)4CO)]G-{NH(2-(3-pyridyl)ethyl)}; lactam N-7)",
    "solubility at 2 h": "250 µg/mL"
  }
]

# context switch: different molecule, same solubility at 2 h
Request: Requested read-out: solubility at 2 h. Entry: Cc1cccc2c(C[C@@H]3NC(=O)CCCCCCCCC(=O)N(C)CCCC[C@@H](C(=O)NCC(=O)NCCc4cccnc4)NC(=O)C(C)(C)NC(=O)[C@H](Cc4ccc5ccccc5c4)NC(=O)[C@H](Cc4ccc(OCCN(C)C)cc4)NC(=O)C4(CCOCC4)NC(=O)[C@H](CC(C)C)NC3=O)c[nH]c12 [compound 17] ([Trp(7-Me)]L[Thp]Y(Me2NCH2CH2)[2Nal][Aib][Lys(Me)]G-{NH(2-(3-pyridyl)ethyl)}; linker N-7 via Sebacoyl)
Response: < 10 µg/mL
